Assay comment: gradient 5% acetonitrile 3 min, to 50% in 2 min, to 85% in 15 min, held 3 min, 100 µL/min
Condition label: column: Zorbax Extend-C18 2.1 x 50 mm; eluents: water / acetonitrile, 0.1% formic acid
RP-LC retention time under 700 s gets Satisfied, anything at or over 700 s gets Not satisfied.

O=C(CN1CCc2ccccc2C1C(=O)N1CCCC1)NCc1ccc(C(F)(F)F)cc1 (stereo not given) : Not satisfied
CC(CCNC(=O)c1nnc(-c2ccc(S(=O)(=O)N3CCOCC3)cc2)o1)N1CCCCCC1 (stereo not given) : Satisfied
O=C(Nc1cc(-c2ccsc2)no1)c1ccc(F)c(F)c1 : Not satisfied
Cc1ccc(NC(=O)N(C)CCc2noc(COc3ccccc3)n2)cc1 : Not satisfied
